Task for the reader: assign each of the following compounds its reported IC50.
System: P. falciparum stage V female gametocytes
Experiment: P. falciparum female gametocyte activation assay (Pf FGAA), 24 h or 48 h preincubation, Pfs25 expression readout
Format: cell-based, Plasmodium falciparum NF54
Settings: P. falciparum female gametocytes; mean; read-out: Gametocytes mean Pf FGAA IC50
Give the value in nM but do not write nM after it.

input: Using known records, supply IC50 for O=C(NCC1CCN(Cc2cccc(C(F)(F)F)c2)C1)c1cc(-c2cccc(Cl)c2)cs1.O=C(O)C(F)(F)F (stereo not drawn)
output: 890

input: Identify IC50 associated with the compound O=C(Nc1cc(C(F)(F)F)cc(C(F)(F)F)c1)Nc1ccc(Cl)c(Cl)c1
output: 1430

input: Quick one: give measured IC50 for C[C@H](Cc1ccc(OCCCCCOc2ccc(C[C@@H](C)NC[C@H](O)c3cccc(Cl)c3)cc2)cc1)NC[C@H](O)c1cccc(Cl)c1.Cl
output: 960

input: Give recorded IC50. Cn1c(Nc2cc(C(C)(C)C)on2)nc2cc(Nc3ccnc(Nc4cccc(S(=O)(=O)N5CCOCC5)c4)n3)ccc21
output: 1190

input: Return the recorded IC50 value; entry: CNCCNc1nccc(N2CCc3ncnc(Nc4ccc(OCc5cccc(F)c5)c(Cl)c4)c3C2)n1
output: 1670

input: Give recorded IC50. CC(C)(C)c1ccc(CN2CCC(CNC(=O)c3cc(-c4ccccc4Cl)cs3)C2)cc1.O=C(O)C(F)(F)F (stereo not drawn)
output: 1010

input: Specify IC50 for COc1ccc(CNC2Cc3ccccc3C2)cc1-c1ccc(S(=O)(=O)NCCN2CCCC2)cc1.O=C(O)C(F)(F)F and stop.
output: 1990

input: Return value of IC50 for input CCc1cc2c(Sc3nnc(N)s3)ncnc2s1 , no commentary.
output: 730

input: For the compound CC(C)(C)c1ccc(CN2CCC(CNC(=O)c3cc(-c4ccccc4C(F)(F)F)cs3)C2)cc1.O=C(O)C(F)(F)F (stereo not drawn) , give its reported IC50.
output: 690

input: For the compound CC(C)C1=CC(=NOS(=O)(=O)c2ccccc2)C=C(C(C)C)C1=O , report IC50.
output: 880

input: Answer with reported IC50 of O=C(O)C(F)(F)F.O=S(=O)(NCCN1CCCC1)c1ccc(-c2cccc(CNC3Cc4ccccc4C3)c2)s1
output: 1290

input: Provide measured IC50 value, entry: NCCCCNc1cc(-c2ccnc(Nc3cccc(Cl)c3)n2)ccn1
output: 1460

input: State, in one line, measured IC50 of CCC1CN2CCc3cc(OC)c(OC)cc3C2CC1CC1NCCc2cc(OC)c(OC)cc21 (stereo not drawn)
output: 1820

input: Complete the entry with IC50 for CN1CCC(N2CCN(Cc3cccc(-c4ccc(-c5nc6cc(C(F)(F)F)ccc6[nH]5)cc4)c3)CC2)CC1.O=C(O)C(F)(F)F
output: 1090

input: // fetch IC50 given entry FC(F)(F)c1ccc2[nH]c(-c3ccc(-c4ccc(CNCCN5CCNCC5)cc4)cc3)nc2c1.O=C(O)C(F)(F)F
output: 1410

----------
Could you please report measured Tox50 for the items listed next?
Tested on: HepG2 cells
Assay: HepG2 cytotoxicity assay
Assay type: cell-based
Settings: HepG2, 48 h
Report only the number, with the unit µM understood.

input: Using the record for NCC1(c2nc(-c3ccc(Cl)c(O)c3)c(-c3ccncc3)[nH]2)CCCCC1 , state its measured Tox50.
output: 11.9

input: Identify measured Tox50 associated with CC(C)(CNC(=O)[C@H]1CCCCN1)c1nc(-c2ccc(Cl)c(O)c2)c(-c2ccncc2)[nH]1
output: 28.96

input: Indicate the recorded Tox50 value for this compound: Cc1ccc(Cn2nc(Cl)c(N3CCNCC3)cc2=O)cc1NC(=O)Nc1ccc(-c2ccccc2)cc1
output: 4.79

input: Look up Tox50 of COc1cc(OC)cc(C(=O)Nc2nc(-c3ccccn3)cs2)c1 and report it.
output: 39.82

input: For the compound FC(F)(F)c1cnc(Sc2nnc(-c3ccncc3)o2)c(Cl)c1 , give its reported Tox50.
output: 100

Every entry's value here was drawn from paper PMC5442318.
